- Test system: SNB-19 CNS
- procedure.text: NCI tumour cell line growth inhibition, 48 h
assay.endpoint: GI50

[
  {
    "molecule": "Cc1sc(C(=O)Nc2cc(C(=O)NCCCN(C)C)n(C)c2)cc1NC(=O)CCCN1C(=O)c2cccc3cccc(c23)C1=O",
    "GI50": "> 100 µM"
  },
  {
    "molecule": "COc1ccc(-c2ccc(/C=N/n3c(COc4ccc(Cl)cc4Cl)n[nH]c3=S)o2)c([N+](=O)[O-])c1",
    "GI50": "28.4 µM"
  }
]

Answer for every listed entry: what is its GI50? The entries follow.
1. COC(=O)[C@]12CC[C@@H](C)[C@H](C)[C@@H]1C1=CC[C@@H]3[C@@]4(C)C[C@@H](OC(C)=O)[C@H](O)[C@@](C)(COC(C)=O)[C@@H]4[C@H](O)C[C@@]3(C)[C@]1(C)CC2
2. O=CNc1c(Cl)cc2c(c1Cl)Cc1cc([N+](=O)[O-])ccc1-2
3. CCN(CC)c1ccc(C(=C2C=CC(=[N+](CC)Cc3cccc(S(=O)(=O)O)c3)C=C2)c2ccc(N(CC)Cc3cccc(S(=O)(=O)O)c3)cc2)cc1
4. O=C1OC(=O)C(c2c[nH]c3ccccc23)=C1c1c[nH]c2ccccc12
5. C[C@@H](C(=O)Nc1ccc(Cl)cc1)C1CCC(c2ccnc3ccc(F)cc23)CC1 (stereo partly drawn)
6. CCCCCn1c(=N)n(CC(O)COc2cccc(C)c2)c2ccccc21 (stereo not drawn)

2.78 µM
16.5 µM
14.2 µM
> 25 µM
10.8 µM
12.3 µM
